TEST CONDITIONS: in water, 294.15 K
MEASURED PARAMETER: solubility (mole fraction)

Data request: Item O=C(O)c1ccco1 has what recorded solubility (mole fraction)?
Data returned: 0.00633

* * *

TEST CONDITIONS: in water, 279.15 K
MEASURED PARAMETER: solubility (mole fraction)
Lab note: record the figure alone, no unit after it.

O=C(O)c1ccco1 0.00411
O=C(O)CCCC(=O)O 0.0734

Then this molecule:
Data request: Tell me the measured solubility (mole fraction) of O=C(O)CCCCCC(=O)O , please.
Data returned: 0.00204

* * *

TEST CONDITIONS: in water, 320.65 K
MEASURED PARAMETER: solubility (mole fraction)
Answer using only a numeral; do not append any unit.

Data request: I have this compound here, O=C(O)CCCCCC(=O)O , and I need its recorded solubility (mole fraction).
Data returned: 0.0584
